# ASSAY SUMMARY: in vitro
# REPORTED CONDITIONS: PAMPA, PAMPA-BBB Pe(10^-6 cm/sec), Table S3: compounds exhibiting low PAMPA-BBB permeability
Items are presented alongside their recorded Papp.
READOUT NAME: Papp (×10⁻⁶ cm/s)

COMPOUND	RELATION SIGN	REPORTED RESULT
O=C(O)c1ccc2c(c1)OCO2	<	1
C[C@H](O)C(=O)C1=Nc2c(nc(N)[nH]c2=O)NC1 [SEPIAPTERIN]	=	1.6
C=C(NC(=O)C(=C)NC(=O)c1csc(C2=N[C@@H]3c4csc(n4)[C@H]4NC(=O)c5csc(n5)[C@H]([C@](C)(O)[C@@H](C)O)NC(=O)[C@H]5CSC(=N5)/C(=C/C)NC(=O)[C@H]([C@@H](C)O)NC(=O)c5csc(n5)[C@]3(CC2)NC(=O)[C@H](C)NC(=O)C(=C)NC(=O)[C@H](C)NC(=O)[C@H]([C@@H](C)CC)N[C@@H]2C=Cc3c([C@H](C)O)cc(nc3[C@H]2O)C(=O)O[C@@H]4C)n1)C(N)=O	<	1
O=C(O)c1cc(O)c(O)c(O)c1	<	1
O=C(OC[C@H]1O[C@@H](OC(=O)c2cc(O)c(O)c(O)c2)[C@H](OC(=O)c2cc(O)c(O)c(O)c2)[C@@H](OC(=O)c2cc(O)c(O)c(O)c2)[C@@H]1OC(=O)c1cc(O)c(O)c(O)c1)c1cc(O)c(O)c(O)c1	=	3.2
COc1cc(C[C@@H](CO)[C@H](CO)Cc2ccc(O)c(OC)c2)ccc1O	<	1
COC(=O)c1ccc(O)c2nc3c(C=O)c(O)cc(O)c3nc12	=	5.1
COc1ccc2[nH]cc(CCNC(C)=O)c2c1	=	2.8
Cn1cnc(N)c2ncnc1-2	<	1
Nc1ncnc2c1ncn2[C@@H]1O[C@H](CO)[C@@H](O)[C@H]1O	<	1
CC/C=C\CC1=C(C)CCC1=O	<	1
O=C1C=C2C(=CCOC2O)O1 (stereo not drawn)	<	1
Cc1coc2c1C(=O)C(=O)c1c-2ccc2c(C)cccc12	=	6.8
C[C@H]([C@H](O)CCC(C)(C)O)[C@H]1CC[C@@]2(O)C3=CC(=O)[C@@H]4C[C@@H](O)[C@@H](O)C[C@]4(C)[C@H]3CC[C@]12C	<	1
O=C1c2c(O)cccc2[C@H]([C@@H]2O[C@H](CO)[C@@H](O)[C@H](O)[C@H]2O)c2cc(CO)cc(O)c21	=	5.4

* * *

# REPORTED CONDITIONS: Table S3: compounds exhibiting low PAMPA-BBB permeability
READOUT NAME: PAMPA-BBB Pe(10^-6 cm/sec)

COMPOUND	READOUT NAME	REPORTED RESULT
COC1=C(O)C(=O)c2c(cc3oc(C(C)=O)c(O)c3c2O)C1=O	PAMPA-BBB Pe(10^-6 cm/sec)	<1 10^-6 cm/sec
COc1ccc([C@@H]2[C@@H](O)[C@H](O)[C@@H](C)N2C)cc1OC	PAMPA-BBB Pe(10^-6 cm/sec)	1.3 10^-6 cm/sec
COc1cc(-c2oc3cc(O)cc(O)c3c(=O)c2O[C@@H]2O[C@H](CO)[C@@H](O)[C@H](O)[C@H]2O)cc(OC)c1O	PAMPA-BBB Pe(10^-6 cm/sec)	<1 10^-6 cm/sec
COC(=O)[C@H](Cc1ccccc1)NC(=O)/C(=C1\OC(=O)C(c2ccccc2)=C1O)c1ccccc1	PAMPA-BBB Pe(10^-6 cm/sec)	<1 10^-6 cm/sec
COc1ccc(C2CC(=O)c3ccc(OC)cc3O2)cc1 (centres unmarked)	PAMPA-BBB Pe(10^-6 cm/sec)	5.8 10^-6 cm/sec
OC1c2ccccc2N=C2CCCN21 (centres unmarked)	PAMPA-BBB Pe(10^-6 cm/sec)	5.3 10^-6 cm/sec
CC1=CC(=O)/C(=C(/C)O)C(=O)O1	PAMPA-BBB Pe(10^-6 cm/sec)	3.3 10^-6 cm/sec
Cn1c2c(c(=O)c3ccccc31)C[C@@H](O)C(C)(C)O2	PAMPA-BBB Pe(10^-6 cm/sec)	<1 10^-6 cm/sec
CC(=O)O[C@H]1C[C@@H](OC(C)=O)C(C)(C)C2C[C@@H](OC(C)=O)[C@]3(C)C(CC[C@@]4(C)[C@H](c5ccoc5)OC(=O)[C@H]5O[C@]543)[C@]21C (some centres unmarked)	PAMPA-BBB Pe(10^-6 cm/sec)	2.7 10^-6 cm/sec
COc1c2ccoc2nc2c(OC)c(O[C@@H]3O[C@H](C)[C@@H](O)[C@@H](O)[C@H]3O)ccc12	PAMPA-BBB Pe(10^-6 cm/sec)	<1 10^-6 cm/sec
COc1ccc2[nH]cc(CCO)c2c1	PAMPA-BBB Pe(10^-6 cm/sec)	9.4 10^-6 cm/sec
COc1ccccc1O[C@@H]1O[C@H](CO)[C@H](O)[C@H](O)[C@H]1O	PAMPA-BBB Pe(10^-6 cm/sec)	1.5 10^-6 cm/sec
C/C=C(\C)C(=O)O[C@H]1CC(C)=C2C(=O)C=C(C)C2[C@@H]2OC(=O)[C@@](C)(OC(=O)C=C(C)C)C21 (some centres unmarked)	PAMPA-BBB Pe(10^-6 cm/sec)	5.7 10^-6 cm/sec
COc1cc(C(O)CO)ccc1OS(=O)(=O)[O-].[K+] (centres unmarked)	PAMPA-BBB Pe(10^-6 cm/sec)	<1 10^-6 cm/sec
Cn1cnc2c(ncn2[C@@H]2O[C@H](CO)[C@@H](O)[C@H]2O)c1=N	PAMPA-BBB Pe(10^-6 cm/sec)	<1 10^-6 cm/sec
COc1cc2oc(=O)c3c4c(cc5ccc(c1CCN(C)C)c2c53)OCO4	PAMPA-BBB Pe(10^-6 cm/sec)	<1 10^-6 cm/sec
C[C@]12O[C@H](C[C@@]1(O)C(=O)O)n1c3ccccc3c3c4c(c5c6ccccc6n2c5c31)CNC4=O	PAMPA-BBB Pe(10^-6 cm/sec)	<1 10^-6 cm/sec
O=C(NC[C@H](O)c1ccccc1)c1ccccc1	PAMPA-BBB Pe(10^-6 cm/sec)	<1 10^-6 cm/sec
Nc1ncnc2c1ncn2[C@@H]1O[C@H](COP(=O)(O)OP(=O)(O)OC[C@H]2OC(O)[C@H](O)[C@@H]2O)[C@@H](O)[C@H]1O (some centres unmarked)	PAMPA-BBB Pe(10^-6 cm/sec)	<1 10^-6 cm/sec
O=C1c2ccccc2-[n+]2ccc3c([nH]c4ccccc43)c21	PAMPA-BBB Pe(10^-6 cm/sec)	<1 10^-6 cm/sec
COc1c(O)cc2c(=O)oc3c(OC)c(O)cc4c(=O)oc1c2c34	PAMPA-BBB Pe(10^-6 cm/sec)	<1 10^-6 cm/sec
O=C1N[C@@H](Cc2c[nH]c3ccccc23)C(=O)N[C@H]1Cc1c[nH]c2ccccc12	PAMPA-BBB Pe(10^-6 cm/sec)	<1 10^-6 cm/sec
Cc1cc(O)c2c(c1O)C(=O)C(O)=C(O)C2=O	PAMPA-BBB Pe(10^-6 cm/sec)	4.8 10^-6 cm/sec
C[N+]12CC[C@@]34c5ccccc5N5C(=O)C[C@@H]6OCC=C(C1)[C@H](CC32)[C@@H]6C54 (some centres unmarked)	PAMPA-BBB Pe(10^-6 cm/sec)	<1 10^-6 cm/sec
COC(=O)C(O)C(O)(CCC(C)C)C(=O)OC1C(OC)=CC23CCCN2CCc2cc4c(cc2C13)OCO4 (centres unmarked)	PAMPA-BBB Pe(10^-6 cm/sec)	<1 10^-6 cm/sec
CC(=O)NCCc1ccc(O)c(-c2c(O)c(O)c3c(c2O)C(=O)c2c(cc(O)c(C(=O)O)c2C(=O)O)C3=O)c1	PAMPA-BBB Pe(10^-6 cm/sec)	<1 10^-6 cm/sec
Cc1cc(O)c(C=O)c(O)c1C(=O)O	PAMPA-BBB Pe(10^-6 cm/sec)	2.7 10^-6 cm/sec
CNCCCCc1cnc(C)c2[nH]c3ccccc3c12	PAMPA-BBB Pe(10^-6 cm/sec)	<1 10^-6 cm/sec
OC[C@H]1O[C@@H](n2cnc3cncnc32)[C@H](O)[C@@H]1O	PAMPA-BBB Pe(10^-6 cm/sec)	<1 10^-6 cm/sec
CC1(C)C(=O)C=C[C@@]2(C)C1CC(=O)[C@]1(C)C2CC[C@@]2(C)[C@H](c3ccoc3)OC(=O)[C@H]3O[C@]321 (some centres unmarked)	PAMPA-BBB Pe(10^-6 cm/sec)	<1 10^-6 cm/sec
CN(N=O)c1cc(O)ccc1O	PAMPA-BBB Pe(10^-6 cm/sec)	<1 10^-6 cm/sec
COc1cc(C(=O)OC2C[C@H]3CC[C@@H](C2)N3C)ccc1O (some centres unmarked)	PAMPA-BBB Pe(10^-6 cm/sec)	8.5 10^-6 cm/sec

* * *

# ASSAY SUMMARY: in vitro
# REPORTED CONDITIONS: PAMPA, PAMPA-BBB Pe, Table S2: compounds exhibiting moderate to high PAMPA-BBB permeability
Where a name gives a salt, the structure may show the parent alone.
READOUT NAME: Papp (×10⁻⁶ cm/s)

> print(dat)
                                    molecule  units.text  reported.result
 1  C=CC(C1=CC(=O)C(OC)=CC1=O)c1ccc(OC)cc1 (stereo not shown)  ×10⁻⁶ cm/s              143
 2  CC[C@H]1CN2CC[C@H]1C[C@@H]2[C@@H](O)c1ccnc2ccc(OC)cc12 [HYDROQUINIDINE HYDROCHLORIDE]  ×10⁻⁶ cm/s               37
 3             Oc1ccc(C2=Cc3ccc(O)cc3OC2)cc1  ×10⁻⁶ cm/s              145
 4                        C/C=C/c1ccc(OC)cc1  ×10⁻⁶ cm/s              120
 5      O=C1c2ccccc2-n2c1nc1ccccc1c2=O [[…]]  ×10⁻⁶ cm/s              141
 6                       C=CCc1ccc(O)c(OC)c1  ×10⁻⁶ cm/s              116
 7  COC(=O)C1=CO[C@@H](C)[C@H]2CN3CCc4c([nH]c5ccccc45)[C@@H]3C[C@H]12 [RAUBASINE HYDROCHLORIDE]  ×10⁻⁶ cm/s              125
 8  CN1CCCCC1c1ccc(-c2cccnc2)nc1 (stereo not shown)  ×10⁻⁶ cm/s               31
 9             COc1cc(/C=C/c2ccccc2)oc(=O)c1  ×10⁻⁶ cm/s              186
10                             OCC=Cc1ccccc1  ×10⁻⁶ cm/s               69
11   COc1cc(-c2oc3cc(O)cc(O)c3c(=O)c2O)ccc1O  ×10⁻⁶ cm/s              528
12  C=C[C@@H](C1=CC(=O)C(OC)=C(OC)C1=O)c1ccccc1  ×10⁻⁶ cm/s               70
13  CC(=O)[C@@]1(O)CC[C@H]2[C@@H]3CCC4=CC(=O)CC[C@]4(C)[C@H]3CC[C@@]21C [HYDROXYPROGESTERONE]  ×10⁻⁶ cm/s              110
14  CN1CC[C@]23c4ccccc4N[C@H]1[C@]21CCN(C)[C@H]3Nc2ccccc21 [[…]]  ×10⁻⁶ cm/s               23
15  CC1=CCCC(C)(C)C12CCC(C)O2 (stereo not shown) [T[…]]  ×10⁻⁶ cm/s              141
16  COc1cc(C)c(C(=O)Oc2cc(C)c(C(=O)O)c(O)c2C)c(OC)c1C  ×10⁻⁶ cm/s               15
17                          O=Cc1cc2ccccc2o1  ×10⁻⁶ cm/s              154
18  COc1cc(C2c3cc4c(c(O)c3CC3COC(=O)C32)OCO4)cc(OC)c1O (stereo not shown)  ×10⁻⁶ cm/s               14
19  CN1CC(CO)=C[C@H]2c3cccc4[nH]cc(c34)C[C@H]21  ×10⁻⁶ cm/s               17
